B1: Caulobacter ParB omega fusion; a variant is named by its letters at X, in order, B8GW30 (parent)
chain: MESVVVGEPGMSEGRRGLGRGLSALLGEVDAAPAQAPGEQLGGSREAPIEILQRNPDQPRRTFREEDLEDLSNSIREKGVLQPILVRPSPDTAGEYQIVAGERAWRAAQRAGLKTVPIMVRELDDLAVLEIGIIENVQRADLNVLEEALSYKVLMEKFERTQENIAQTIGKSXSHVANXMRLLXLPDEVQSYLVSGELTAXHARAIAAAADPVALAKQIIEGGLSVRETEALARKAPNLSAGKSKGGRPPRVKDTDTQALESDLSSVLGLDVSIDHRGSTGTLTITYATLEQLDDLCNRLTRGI

# Variants of: B1
# experiment-notes: one-hybrid fitness for binding parS DNA (scaled: cognate 1, non-cognate 0); higher = stronger binding
# applied-conditions: with parS DNA site
Whole data set: some 81,000 sequences, median “one-hybrid fitness for binding parS DNA” near -0.17, cut for the highest 2% near 0.51. Many of the other results were omitted from the sample, so the highest values are more common in it than they were.
measured-property: one-hybrid fitness for binding parS DNA

Solved entries (count: 4):
>>> df
   mutation_id                        measured_property  result
0         AYYS  one-hybrid fitness for binding parS DNA   ≤ 0.2
1         RQDA  one-hybrid fitness for binding parS DNA   0.546
2         QNAM  one-hybrid fitness for binding parS DNA   ≤ 0.2
3         QTWK  one-hybrid fitness for binding parS DNA   ≤ 0.2

Would you mind giving one-hybrid fitness for binding parS DNA for every variant in the list below?
1. RKRY
2. RSKQ
3. RTCG
4. IPSC

OUT:
0.422
≤ 0.2
0.999
≤ 0.2

The reported numbers originate from a collection of fitness landscapes (doi:10.1016/j.celrep.2020.107928).
